- Test system: aqueous kinetic solubility, pH 7.4 phosphate buffer, LC-UV/MS
- experiment: qHTS Assay to Find Inhibitors of T. brucei phosphofructokinase: Aqueous Kinetic Solubility
- condition.notes: stronger effect = higher value

- given.smiles: "O=C(Cc1ccc(Cl)c(Cl)c1)Nc1ccc(S(=O)(=O)Nc2ccon2)cc1"
  target.under.test: "aqueous kinetic solubility, pH 7.4 phosphate buffer, LC-UV/MS"
  solubility: "150 µM"

Data origin: PubChem BioAssay AID624130
